Origin of measurements: the Human Domainome abundance scans (Beltran et al. 2025)

B1: POU domain, class 2, transcription factor 1, residues 285 to 354; numbered along this chain, P14859 (parent)
chain: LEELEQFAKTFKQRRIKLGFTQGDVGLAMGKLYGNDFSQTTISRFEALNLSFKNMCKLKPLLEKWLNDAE

Variants of: B1
Assay: abundance fitness (aPCA) (normalised: wild type 0, dead -1); higher = more abundant; growth selection in yeast, the domain comes from the species named
Settings: Homo sapiens
We begin with a simple list: items and their reported abundance fitness.
The answer should be a number; do not append a unit.

Consider the worked cases shown below.
LEELEQFAKTFKQRRIKLGFTQGDVGLAMGKLYGNDFSQTTISRFEALNLSFKNMCKLKPLLEKWLNRAE [D68R] :: -0.022
LEELEQFAKTFKQRRIKLGFTQGDVGLAMGKLYGNDFSQTTISRFEALNLSFKMMCKLKPLLEKWLNDAE [N54M] :: -0.005
LEELEQFAKTFKQRRIKLGFTQGDVGLAMGKLYTNDFSQTTISRFEALNLSFKNMCKLKPLLEKWLNDAE [G34T] :: -0.16
LEELEQFAKTFKQRRIKLGFTQGDVGLAMGKLYGNDFSQTTISRFFALNLSFKNMCKLKPLLEKWLNDAE [E46F] :: -1
LEELEQFAKTFKQRRIKLGFTQGDVGLAMGKLYGNDFSQTTISRFEALNLSFKNMCKLKALLEKWLNDAE [P60A] :: -0.066

Look up and report measured abundance fitness for this entry: LEELEQFAKTFKQRKIKLGFTQGDVGLAMGKLYGNDFSQTTISRFEALNLSFKNMCKLKPLLEKWLNDAE [R15K]
-1.09

Look up and report measured abundance fitness for this entry: LEELEQFAKTFKQRRIKLGFTQGDVGLAMGKLYGNDFSQTTISRAEALNLSFKNMCKLKPLLEKWLNDAE [F45A]
-0.62

Look up and report measured abundance fitness for this entry: LEELEQFAKTFKQRRIKLGFTQGDVFLAMGKLYGNDFSQTTISRFEALNLSFKNMCKLKPLLEKWLNDAE [G26F]
-0.082

Look up and report measured abundance fitness for this entry: LEELEQFAKTFKQRRIKLGFTQGDVGLAMGKLYGNDFSQTTISRFEALNLSFKNMCKLKPLLEKWHNDAE [L66H]
-0.474

Look up and report measured abundance fitness for this entry: LEELEQFMKTFKQRRIKLGFTQGDVGLAMGKLYGNDFSQTTISRFEALNLSFKNMCKLKPLLEKWLNDAE [A8M]
-0.205

Look up and report measured abundance fitness for this entry: LEELDQFAKTFKQRRIKLGFTQGDVGLAMGKLYGNDFSQTTISRFEALNLSFKNMCKLKPLLEKWLNDAE [E5D]
-0.072

Look up and report measured abundance fitness for this entry: LEELEQFAKTFKQRRIKLGFTQGDVGLAMGKRYGNDFSQTTISRFEALNLSFKNMCKLKPLLEKWLNDAE [L32R]
-0.031

Look up and report measured abundance fitness for this entry: LEELEPFAKTFKQRRIKLGFTQGDVGLAMGKLYGNDFSQTTISRFEALNLSFKNMCKLKPLLEKWLNDAE [Q6P]
-0.245

Look up and report measured abundance fitness for this entry: LEELEQFAKTYKQRRIKLGFTQGDVGLAMGKLYGNDFSQTTISRFEALNLSFKNMCKLKPLLEKWLNDAE [F11Y]
-0.238

Look up and report measured abundance fitness for this entry: LEELEQFAKTFKQRRIKLGFTQGDVGLAMGKLYGNDFSQTTISRFEALNLSFKNMCKLKPLLEKPLNDAE [W65P]
-0.693

Look up and report measured abundance fitness for this entry: LEELEQFAKTFKQRRIKLGFTQVDVGLAMGKLYGNDFSQTTISRFEALNLSFKNMCKLKPLLEKWLNDAE [G23V]
0.113

Look up and report measured abundance fitness for this entry: LEELEQFAKTFKQRRIKLGFTQGDVGLAMGKLYGNDFSQTTISRFEALNLSFKNMCKLKPLLEKWLNDKE [A69K]
0.004

Look up and report measured abundance fitness for this entry: LEELEQFAKTFKQRRIKLGFTQGDVGLAMGKLDGNDFSQTTISRFEALNLSFKNMCKLKPLLEKWLNDAE [Y33D]
-0.125

Look up and report measured abundance fitness for this entry: LEELEQFAKTFKQRRIKLGFTQGDVGLAMGKLYGNDFSQTTISRFEALNLSFQNMCKLKPLLEKWLNDAE [K53Q]
-0.019

Look up and report measured abundance fitness for this entry: LEELEQFAKTFKQRRIKLGFTQGDVGLAMGKLYGNDFSQTTISRFEALNLSFKNMCKLKPLLEKWLNDLE [A69L]
-0.064

Look up and report measured abundance fitness for this entry: LEELEQFAKTFKQRRIKLGFTQGDVGLAMGKLYGNDFSQTTRSRFEALNLSFKNMCKLKPLLEKWLNDAE [I42R]
-0.869

Look up and report measured abundance fitness for this entry: LEELEQFAKTFKQRRIKLGFTQGDVGLAMGKLYGNDFSQTTITRFEALNLSFKNMCKLKPLLEKWLNDAE [S43T]
-0.007

Look up and report measured abundance fitness for this entry: LEELEAFAKTFKQRRIKLGFTQGDVGLAMGKLYGNDFSQTTISRFEALNLSFKNMCKLKPLLEKWLNDAE [Q6A]
0.015

Look up and report measured abundance fitness for this entry: LEELEQFAKTFKQRRIKLGFTQGDVGLAGGKLYGNDFSQTTISRFEALNLSFKNMCKLKPLLEKWLNDAE [M29G]
-0.377

Look up and report measured abundance fitness for this entry: LEELEQFAKTFKQRRIKLGFTQGDVGLAMGKLYGNDFSQTTISRFEALNLSFKNMYKLKPLLEKWLNDAE [C56Y]
0.042

Look up and report measured abundance fitness for this entry: LEELEQFAKTFKQWRIKLGFTQGDVGLAMGKLYGNDFSQTTISRFEALNLSFKNMCKLKPLLEKWLNDAE [R14W]
-0.296

Look up and report measured abundance fitness for this entry: LEELEQFAKTFKQRRIKLGFTQGDVGLAMGKLYGNDFSQTTISRFEALNPSFKNMCKLKPLLEKWLNDAE [L50P]
-0.678

Look up and report measured abundance fitness for this entry: LEELEQFAKTFKQRRIKLGFTQGDVGLAMGKLYGNDDSQTTISRFEALNLSFKNMCKLKPLLEKWLNDAE [F37D]
0.006

Look up and report measured abundance fitness for this entry: LEELEQFAKTFKQRRIKLGFTQGDVGLAMGKLYGNDFSQTTISRFEALNLSFKGMCKLKPLLEKWLNDAE [N54G]
-0.018
